system: Plasmodium berghei; assay: Screen against P. berghei liver stage (PbLuc), transformed with Luciferase, at 10uM; type: functional, HepG2; conditions: tested at 10 uM
Among all 69,000 compounds or so, about 8,600 (12%) showed an effect of 50% or more. Shown is part of a subset that was picked to be rich in strong results.
Recorded measurements of INHIBITION, one per entry

# COMPOUND, INHIBITION (%)
rows = [
    ("CCC(C)NC(=O)Nc1cccc(OC)c1 (centres undefined)", -32),
    ("COc1cc(CNCc2ccco2)ccc1OCCO", 10.6),
    ("Cc1ccccc1CNC(=O)CN1CCCC(Cc2nccn2C)C1 (centres undefined)", -50.8),
    ("CN(C)CCCN(Cc1ccco1)Cc1ccnn1C1CCCCO1 (centres undefined)", -0.232),
    ("Cc1cnn(CC2CCCN2C(=O)CN(C)C2CC2)c1 (centres undefined)", 29.7),
    ("CN(Cc1cccnc1)C1CC2(CCN(C(=O)c3ccnnc3)CC2)C1", 53.9),
    ("Cc1cc(=O)[nH]c(=O)n1COCc1ccccc1", 13.6),
    ("CN(Cc1cccnc1)C1CC2(CCN(C(=O)c3cscn3)CC2)C1", -18.5),
    ("CCc1cnc2c(c1Nc1cccc(OC)c1)c(=O)n(C)c(=O)n2C", -31),
    ("CN1CCN(CC(C)(C)C)CC1CCO (centres undefined)", -1.26),
    ("CN(Cc1ccncc1)C1CC2(CCN(C(=O)c3ccnnc3)CC2)C1", -5.63),
    ("O=C(c1cnccn1)N1CCCC2(CCN(c3ccccn3)C2)C1 (centres undefined)", -16.1),
    ("Cc1nccn1C1CCCN(C(=O)c2ccc(N(C)C)nn2)C1 (centres undefined)", -22.9),
    ("Cc1cccc2c1OCCC2NCc1c(C(C)C)nn(C)c1N(C)C (centres undefined)", -41.2),
    ("COCCN1C(=O)CCC12CCC(NCc1ccc(OC)cc1)CC2 (centres undefined)", 15.3),
    ("Cn1cncc1CN1CCC2(CC1)COCCN(S(C)(=O)=O)C2", 4.68),
    ("Cc1occc1C(=O)N1CCO[C@H]2[C@H](OCc3ccccn3)CC[C@@H]21", 30.3),
    ("CCC1(CC)C(=O)NC(=O)N/C1=N/c1cccc(OC)c1", 58.2),
    ("CN(Cc1ccccn1)C1CC2(CCN(Cc3cccnc3)CC2)C1", 33),
    ("CC(C)n1nc(Cn2cccn2)c2c1CN(C1CCOCC1)C2", -33),
    ("CCn1nc(C)c(NC(=O)CN(C)C(C)c2nccs2)c1C (centres undefined)", -23.4),
    ("CN(Cc1cccnc1)C1CC2(CCN(c3ccccn3)CC2)C1", 47.8),
    ("Cc1cc(=O)[nH]c(=O)n1COCCOCc1ccccc1", 8.41),
    ("CCCC(=O)N1CCC([C@@H]2C[C@H](C(F)(F)F)n3nc(C)cc3N2)CC1", -29.8),
]

----------
test system: Plasmodium berghei; assay: Screen against P. berghei liver stage (PbLuc), transformed with Luciferase, at 10uM; assay type: functional, HepG2; conditions: tested at 10 uM
Among all 69,000 compounds or so, about 8,600 (12%) showed an effect of 50% or more. For the sample, strong results were picked, then their nearest neighbours and some compounds at random.
Recorded measurements of INHIBITION, one per entry

# COMPOUND, TARGET SYSTEM, OUTPUT UNIT, INHIBITION
records = [
    ("Cc1occc1C(=O)N1C[C@@H]2OCCN(c3ncccn3)[C@@H]2C1", "Plasmodium berghei", "%", 11.5),
    ("Cc1cccc(COC[C@H]2CC[C@H]3[C@H](CCN3Cc3ccco3)O2)n1", "Plasmodium berghei", "%", 68.4),
    ("COCCNC(=O)c1ccoc1CN1c2ccccc2CC1C (stereo not given)", "Plasmodium berghei", "%", 20.9),
    ("c1cncc(COC[C@H]2CC[C@H]3[C@H](CCN3Cc3cccs3)O2)c1", "Plasmodium berghei", "%", 31.8),
    ("CC1Cc2ccccc2N1Cc1occc1C(=O)NCC(=O)N(C)C (stereo not given)", "Plasmodium berghei", "%", 53.9),
    ("c1ccc(COC[C@H]2CC[C@H]3[C@H](CCN3Cc3ccco3)O2)nc1", "Plasmodium berghei", "%", 51.3),
    ("c1ccc(COC[C@H]2CC[C@H]3[C@H](CCN3Cc3cccs3)O2)nc1", "Plasmodium berghei", "%", 49.7),
    ("c1ccc(COC[C@H]2CC[C@H]3[C@H](CCN3c3ncccn3)O2)nc1", "Plasmodium berghei", "%", 26.4),
    ("O=C(N[C@@H]1CN(Cc2ccc(F)c(F)c2)C[C@H]1O)c1cscn1", "Plasmodium berghei", "%", 2.6),
    ("CC(C(=O)N1CCN(c2ccccc2)CC1)n1cc(Br)cn1 (stereo not given)", "Plasmodium berghei", "%", -35.4),
]

----------
test system: Plasmodium berghei; assay: Screen against P. berghei liver stage (PbLuc), transformed with Luciferase, at 10uM; type: functional, HepG2; settings: tested at 10 uM
In all, about 69,000 compounds went through this assay and about 8,600 (12%) showed an effect of 50% or more. For the sample, strong results were picked, then their nearest neighbours and some compounds at random.

# COMPOUND, INHIBITION
measured = [
    ("Cc1cc(N2CCC(Cc3cccnc3)C2)ncn1 (centres undefined)", "-2.09%"),
    ("O=C1OCCCN1Cc1nc(-c2ccc(N3CCCCC3)cc2)no1", "55.5%"),
    ("CN1CCOC(C)(C(=O)Nc2nc(C(C)(C)C)cs2)C1 (centres undefined)", "7.5%"),
    ("COCCC1(CO)CCCN(C(=O)CCC(F)(F)F)C1 (centres undefined)", "-1.49%"),
    ("COc1cccc(Nc2nc(N3CCCC3)nc3c2CNCC3)c1", "42.5%"),
    ("Cc1cc(N2CCOCC(Cc3ccc4[nH]ccc4c3)C2)ncn1 (centres undefined)", "67.7%"),
    ("Cc1occc1C(=O)Nc1ccnc(OC2CCOC2)c1 (centres undefined)", "7.84%"),
    ("Cc1cccc(COc2ccc(NC(=O)C(C)NC(N)=O)c(C)c2)c1 (centres undefined)", "61.3%"),
    ("CCC(=O)N1CCCCC1c1nc(O)c2c(n1)CN(C(=O)C1CC1)CC2 (centres undefined)", "34.65%"),
    ("c1ncn(CC2CN(Cc3nc(C4CC4)no3)CCO2)n1 (centres undefined)", "-7.31%"),
    ("COc1cccc(Nc2nc(-c3ccncc3)nc3c2CNCC3)c1", "51.7%"),
    ("CC(C)N1CCC(CC(=O)NC(C(=O)O)c2cccc(F)c2)CC1 (centres undefined)", "36.7%"),
    ("O=C(CCCN1CCCCC1)N[C@H](C(=O)O)c1cccc(F)c1F", "34.5%"),
    ("O=C(C(CNCc1cccs1)c1ccccc1)N1CCOCC1 (centres undefined)", "5.85%"),
    ("Nc1cc(N2CCOCC(Cc3ccc4[nH]ccc4c3)C2)ncn1 (centres undefined)", "66.5%"),
    ("O=C(N1CCCC1)N1CCO[C@H]2[C@@H](OCc3cccnc3)CC[C@@H]21", "-26.5%"),
    ("O=S(=O)(NCc1ccccc1Cn1cncn1)N1CCCCC1", "25.1%"),
    ("CCCN1CCC2(Cc3ccccc3NC2=O)C1 (centres undefined)", "36.2%"),
    ("Cc1ccc2nnc(C(=O)NCC3CCCC3)nc2c1", "-4.01%"),
    ("COCCCN(CCOC)C(=O)Nc1ccccc1-n1cccn1", "32.2%"),
    ("CC(CN1CCCC1=O)NC(=O)c1cc(Cl)c2c(c1)OCO2 (centres undefined)", "38.5%"),
    ("CCc1ccc(CN2C[C@@H]3COC[C@H](NS(C)(=O)=O)[C@@H]3C2)o1", "-12.2%"),
    ("COc1cccc(Nc2nc(C3CCNCC3)c3ccccn23)c1", "9.6%"),
    ("CN1CCN(C2CCN(Cc3cn4ccccc4n3)CC2)C1=O", "-22.3%"),
    ("c1cncc(-c2nc3c(c(NCC4(c5ccncc5)CC4)n2)CCC3)c1", "-5.38%"),
    ("O=C(NCCNc1ncccn1)N1CCCC1c1ccc(F)cc1 (centres undefined)", "6.11%"),
    ("O=C1Nc2ccccc2CC12CCN(CCO)C2 (centres undefined)", "-36.2%"),
    ("CSc1ccc(CN2CCn3nc(CNC(C)=O)cc3C2)cc1", "-89.3%"),
    ("Cc1ccccc1CSc1nc(N)cc(N2CCOCC(CO)C2)n1 (centres undefined)", "46.6%"),
    ("CC(=O)NC(C)C(=O)Nc1ccc(OCc2cccc(F)c2)cc1C (centres undefined)", "26.5%"),
    ("CC(C)N1CCC(CC(=O)NC(C(=O)O)c2ccc(F)cc2)CC1 (centres undefined)", "33.9%"),
    ("Cc1cc(OCc2cccc(F)c2)ccc1NC(=O)C(C)NC(N)=O (centres undefined)", "48.3%"),
    ("Cc1cc(C(=O)N2C[C@@H](C(=O)O)[C@H](C(C)C)C2)cs1", "46.1%"),
    ("O=C1OCCCN1Cc1nc(-c2ccncc2)no1", "36.5%"),
    ("CCSCCNC(=O)c1ccc(S(=O)(=O)N2C[C@H]3C[C@@H]2CN3)cc1", "9.91%"),
    ("Cc1cccc(COc2ccc(C(C)N)cc2)c1 (centres undefined)", "83%"),
    ("N#Cc1ccccc1CN1C[C@H]2CC[C@@H](C1)N(CC1CC1)C2=O", "25.1%"),
    ("CNC(=O)NC(=O)C(NCc1ccccc1)c1ccccc1 (centres undefined)", "24.8%"),
    ("CCN1CCC(CC(=O)N[C@H](C(=O)O)c2cccc(F)c2F)CC1", "-2.39%"),
    ("Cc1cnn(CCC(=O)N2CCCC(c3noc(C)n3)C2)c1 (centres undefined)", "-4.16%"),
    ("NC(=O)C(NCCc1ccc(Cl)s1)c1ccccc1 (centres undefined)", "-35.8%"),
    ("c1cc(N2CCOCC(Cc3ccc4[nH]ccc4c3)C2)ncn1 (centres undefined)", "3.91%"),
    ("O=C1COC2(CCN(Cc3ccsc3)CC2)CN1", "24.9%"),
    ("Cc1cncc(C(=O)N2C[C@@H](C(=O)O)[C@H](C(C)C)C2)c1", "72.2%"),
    ("CC(C)N1CCC(CC(=O)NC(C(=O)O)c2cc(F)ccc2F)CC1 (centres undefined)", "52.1%"),
    ("O=C(Nc1ccnc(OC2CCOC2)c1)c1ccc(F)cc1Cl (centres undefined)", "17.6%"),
    ("O=c1[nH]c2ccccc2c2c1CCO2", "30.7%"),
    ("CN1CCOCC12CCN(C(=O)C1CCC1)CC2", "22.3%"),
    ("NC(=O)C(NCc1cccs1)c1ccccc1 (centres undefined)", "60.1%"),
]
